biological target: human TRPV4 (Homo sapiens); construct: host or cells: tetracycline-inducible Flp-In T-REx 293 cells; experiment: Hypotonicity-induced Ca2+ influx (Fluo-4, FDSS); assay type: cell-based; details: Flp-In T-REx 293 cells stably expressing human TRPV4, compounds listed by potency bin (<10 nM Tables 96-1/96-2, <3 nM Table 97)
Sequence (Q9HBA0 whole entry): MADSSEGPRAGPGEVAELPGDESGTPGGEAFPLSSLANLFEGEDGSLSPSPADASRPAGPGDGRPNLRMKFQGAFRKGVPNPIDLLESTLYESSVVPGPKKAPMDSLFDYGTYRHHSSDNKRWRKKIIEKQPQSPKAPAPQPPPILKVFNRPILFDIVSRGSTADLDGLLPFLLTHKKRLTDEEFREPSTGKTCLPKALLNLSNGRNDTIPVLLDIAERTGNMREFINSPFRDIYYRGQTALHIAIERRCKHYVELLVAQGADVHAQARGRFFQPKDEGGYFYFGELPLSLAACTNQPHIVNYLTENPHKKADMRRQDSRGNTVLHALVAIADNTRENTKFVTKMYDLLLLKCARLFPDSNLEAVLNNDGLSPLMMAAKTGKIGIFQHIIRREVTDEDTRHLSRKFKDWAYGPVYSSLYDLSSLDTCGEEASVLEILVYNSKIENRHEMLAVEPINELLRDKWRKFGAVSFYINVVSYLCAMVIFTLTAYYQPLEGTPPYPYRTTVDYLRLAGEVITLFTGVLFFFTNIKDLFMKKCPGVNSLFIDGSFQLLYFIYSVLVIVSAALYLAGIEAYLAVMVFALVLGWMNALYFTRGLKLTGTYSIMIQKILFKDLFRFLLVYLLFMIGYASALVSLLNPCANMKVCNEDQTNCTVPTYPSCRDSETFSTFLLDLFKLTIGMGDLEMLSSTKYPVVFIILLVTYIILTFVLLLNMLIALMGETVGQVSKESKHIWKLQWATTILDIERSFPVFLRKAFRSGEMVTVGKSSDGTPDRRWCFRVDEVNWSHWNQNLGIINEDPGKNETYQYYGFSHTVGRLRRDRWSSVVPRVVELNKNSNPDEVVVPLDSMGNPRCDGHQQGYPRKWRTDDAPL
# IC50 values compiled below

| Structure smiles string | IC50 |
| --- | --- |
| CC(C)c1cncc(C2(c3nc4c(c(=O)[nH]3)CN(C(=O)[C@H](O)c3cccc(-c5ccc(F)cc5)c3)CC4)CC2)c1 | < 10 nM |
| O=C(Cc1ccccc1)N1CCN(c2ccc(-c3cccc(C4(c5nc6c(c(=O)[nH]5)CN(C(=O)[C@H](O)c5cccc(C(F)(F)F)c5)CCC6)CC4)c3)cn2)CC1 | < 10 nM |
| O=C([C@H](O)c1cccc(-c2cccc(OCc3ccccc3)c2)c1)N1CCCc2nc(C3(c4ccccc4)CC3)[nH]c(=O)c2C1 | < 10 nM |
